// pKd lookup, one value per entry
# experimentalSystem: T1, Pex5p wildtype, recombinant His6-tagged (HisPex5p) (S. cerevisiae, UniProt P35056 1-612)
# T1 construct: Pex5p, PTS1 receptor of Saccharomyces cerevisiae, UniProtKB P35056, full length; No cleavage of the His tag is described; the native MS mass of the monomer is printed as 71.459 kDa; also called Pex5p^WT; source: E. coli BL21 RIL (DE3), purified (Ni-NTA, MonoQ anion exchange, SEC)
# T1 sequence (looked up): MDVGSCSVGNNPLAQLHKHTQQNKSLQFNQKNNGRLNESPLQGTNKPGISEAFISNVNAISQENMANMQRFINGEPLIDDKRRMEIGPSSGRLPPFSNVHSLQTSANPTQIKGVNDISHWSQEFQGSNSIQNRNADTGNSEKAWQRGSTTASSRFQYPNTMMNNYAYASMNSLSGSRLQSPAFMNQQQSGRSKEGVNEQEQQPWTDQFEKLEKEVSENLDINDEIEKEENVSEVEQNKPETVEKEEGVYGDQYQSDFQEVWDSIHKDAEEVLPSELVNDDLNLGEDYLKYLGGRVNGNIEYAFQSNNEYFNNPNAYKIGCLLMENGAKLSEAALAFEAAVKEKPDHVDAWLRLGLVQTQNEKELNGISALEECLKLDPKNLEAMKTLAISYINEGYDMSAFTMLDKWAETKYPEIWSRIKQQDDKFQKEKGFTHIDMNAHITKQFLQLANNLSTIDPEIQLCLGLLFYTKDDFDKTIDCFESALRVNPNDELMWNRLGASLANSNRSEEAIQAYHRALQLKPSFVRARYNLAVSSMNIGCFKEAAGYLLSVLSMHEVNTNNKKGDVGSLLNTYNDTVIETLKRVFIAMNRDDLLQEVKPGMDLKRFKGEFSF
# protocolSummary: fluorescence polarisation; fluorescence anisotropy; 10 nM FITC-labelled peptide, serial dilutions of Pex5p variant 1.5 nM to 6.6 µM; 50 mM HEPES pH 7.5, 150 mM NaCl; one-site binding-saturation fit
# measurementParameters: both partners purified
pKd: −log10 of the molar value. Ends that are not written are not given here. * marks the point of attachment. FITC = O=C1OC2(c3ccc(O)cc3Oc3cc(O)ccc32)c2ccc(NC(=S)*)cc21

binder | pKd
{FITC}-YNENKRKAKL (tyrosine added to the peptide amino-terminus for concentration measurements; the nine carboxy-terminal residues of Cat2p (carnitine acetyl-CoA transferase), S. cerevisiae; An extra N-terminal tyrosine stands before the natural stretch; also called Cat2p peptide; source: synthetic peptide (GenScript)) [Cat2p nonapeptide, FITC-YNENKRKAKL] | 6.94
{FITC}-YARVKRSSRL (tyrosine added to the peptide amino-terminus for concentration measurements; the nine carboxy-terminal residues of Lys1p (saccharopine dehydrogenase), S. cerevisiae; An extra N-terminal tyrosine stands before the natural stretch; also called Lys1p peptide; source: synthetic peptide (GenScript)) [Lys1p nonapeptide, FITC-YARVKRSSRL] | 7.05
{FITC}-YKSSRNKSKL (tyrosine added to the peptide amino-terminus for concentration measurements; the nine carboxy-terminal residues of Pcs60p, S. cerevisiae; An extra N-terminal tyrosine stands before the natural stretch; also called Pcs60p peptide; source: synthetic peptide (GenScript)) [Pcs60p nonapeptide, FITC-YKSSRNKSKL] | 6.19

Where these numbers come from: paper PMC9929924
